B1: Hairpin Ribozyme (parent)
chain: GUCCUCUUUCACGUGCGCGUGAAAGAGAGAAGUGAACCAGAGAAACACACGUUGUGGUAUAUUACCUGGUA

Variants of: B1
TEST METHOD NOTES: self-cleavage, relative activity (ratio to wild type); higher = more cleavage; co-transcriptional
just bin them by self-cleavage: range 1 (below 0.1), range 2 (0.1 to below 0.2), range 3 (0.2 or more)

Sample answers from the record:
{"columns": ["MACROMOLECULE SEQUENCE", "GROUP LABEL"],
 "data": [
  ["GUCCUCUUUCACGUGCGCGUGAAAGACAGAAGUGAACCAGAGAAACACACGUUGUGGUAUACUACCUGGUA [G27C U62C]", "range 2"],
  ["GUCCUCUUUCACGUGCGCGUGAAAGAGAGAAGUGAAUCAGAGAAACACACGUUGUGGUAUAUUACCUGCUA [C37U G69C]", "range 3"],
  ["GUCCUCUUUCACGUGCGCGUGAGAGAGAGAAGUGAACCAGAGAAACACACGUGGUGGUAUAUUACCUGGUA [A23G U53G]", "range 3"],
  ["GUCCUCUGUCACGUGCGCGUGAAAGAGAGAAGUGAACCAGAGAAACGCACGUUGUGGUAUAUUACCUGGUA [U8G A47G]", "range 1"],
  ["GUCCUCUUUCACGUGCGCGUGAAAAAGAGAAGUGAACCAGAGAAACACACGUUGUGGUAUAUUACGUGGUA [G25A C66G]", "range 2"]
]}

Enquiry: Consider GUCCUCUUACUCGUGCGCGUGAAAGAGAGAAGUGAACCAGAGAAACACACGUUGUGGUAUAUUACCUGGUA [U9A A11U] . To which self-cleavage class does it belong?
Return: range 3

Enquiry: Kindly identify the class of GUCCUCUUUCACGUGCGCGUGAAAGAGAGAAGUGAACGAGAGAAACACACUUUGUGGUAUAUUACCUGGUA [C38G G51U] .
Return: range 3

Measured values drawn from the RNAGym collection of RNA variant scans (doi:10.7554/elife.80360) for this set.
